Target: CFTR ΔF508 mutant (Homo sapiens, UniProt P13569, DEL508-508)
Construct: expressed in transfected cells; host or cells: CFBE41o- (adenoviral transduction)
Sequence (P13569 with tags, fused parts or gaps DEL508-508): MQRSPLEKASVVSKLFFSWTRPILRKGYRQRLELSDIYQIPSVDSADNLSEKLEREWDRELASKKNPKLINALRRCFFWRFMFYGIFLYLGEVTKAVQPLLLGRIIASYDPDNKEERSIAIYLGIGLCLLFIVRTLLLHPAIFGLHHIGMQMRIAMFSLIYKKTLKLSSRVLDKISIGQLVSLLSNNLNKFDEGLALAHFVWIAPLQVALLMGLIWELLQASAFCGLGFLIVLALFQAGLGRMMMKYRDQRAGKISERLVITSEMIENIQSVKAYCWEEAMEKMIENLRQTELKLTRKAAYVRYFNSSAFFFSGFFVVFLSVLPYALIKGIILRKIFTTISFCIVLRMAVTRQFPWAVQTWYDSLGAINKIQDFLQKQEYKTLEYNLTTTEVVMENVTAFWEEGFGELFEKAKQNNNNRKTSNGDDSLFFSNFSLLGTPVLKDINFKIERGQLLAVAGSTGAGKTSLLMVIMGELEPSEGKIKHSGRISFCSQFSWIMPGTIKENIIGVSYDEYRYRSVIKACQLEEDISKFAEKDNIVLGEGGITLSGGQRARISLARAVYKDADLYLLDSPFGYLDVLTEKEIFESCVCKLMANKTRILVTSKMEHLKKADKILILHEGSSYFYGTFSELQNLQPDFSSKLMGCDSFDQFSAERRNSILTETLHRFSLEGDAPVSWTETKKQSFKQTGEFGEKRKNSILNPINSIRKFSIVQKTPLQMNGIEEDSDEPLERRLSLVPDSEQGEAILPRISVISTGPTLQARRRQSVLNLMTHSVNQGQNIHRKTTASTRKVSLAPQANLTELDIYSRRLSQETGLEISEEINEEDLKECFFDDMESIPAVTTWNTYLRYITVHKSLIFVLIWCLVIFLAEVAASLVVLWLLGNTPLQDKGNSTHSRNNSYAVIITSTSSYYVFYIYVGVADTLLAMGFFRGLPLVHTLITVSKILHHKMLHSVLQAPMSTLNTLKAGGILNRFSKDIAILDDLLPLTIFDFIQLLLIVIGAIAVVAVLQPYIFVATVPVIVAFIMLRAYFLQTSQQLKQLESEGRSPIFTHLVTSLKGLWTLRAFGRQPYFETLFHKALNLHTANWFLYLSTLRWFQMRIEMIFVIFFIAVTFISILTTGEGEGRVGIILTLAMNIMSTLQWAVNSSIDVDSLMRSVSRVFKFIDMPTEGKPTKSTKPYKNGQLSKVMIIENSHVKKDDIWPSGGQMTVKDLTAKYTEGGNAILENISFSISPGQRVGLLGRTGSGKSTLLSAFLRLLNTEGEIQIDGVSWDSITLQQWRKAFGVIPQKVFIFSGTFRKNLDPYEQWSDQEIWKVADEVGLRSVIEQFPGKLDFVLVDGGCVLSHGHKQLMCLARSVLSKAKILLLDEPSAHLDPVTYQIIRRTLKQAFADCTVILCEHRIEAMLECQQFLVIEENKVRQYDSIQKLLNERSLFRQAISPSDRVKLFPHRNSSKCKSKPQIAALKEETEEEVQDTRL
Assay: YFP-halide influx assay for the CFTR-ΔF508 mutation, gluconate buffer
Format: cell-based
Conditions: CFBE41o- cells, forskolin 10.67 μM
value-type: EC50 (nM)

Worked cases, EC50 given:
[
  {
    "molecule": "NC(=O)c1cc(S(=O)(=O)N2CCOCC2)sc1NC(=O)c1cscn1 [Compound 76]",
    "EC50 [nM]": 621
  },
  {
    "molecule": "NC(=O)c1cc(S(=O)(=O)N2CCCCC2)sc1NC(=O)c1cscn1 [Compound 59]",
    "EC50 [nM]": 182
  },
  {
    "molecule": "NC(=O)c1cc(S(=O)(=O)N2CCC2)sc1NC(=O)c1cc[nH]n1 [Compound 208]",
    "EC50 [nM]": 573
  },
  {
    "molecule": "CCc1cc(C(=O)Nc2sc(S(=O)(=O)c3ccccc3)c(C)c2C(N)=O)n[nH]1 [Compound 103]",
    "EC50 [nM]": 38.4
  },
  {
    "molecule": "CN(C(C)(C)C)S(=O)(=O)c1cc(C(N)=O)c(NC(=O)c2ccccc2F)s1 [Compound 107]",
    "EC50 [nM]": 130
  }
]

A: N#CC1CN(S(=O)(=O)c2cc(C(N)=O)c(NC(=O)c3ccccc3F)s2)C1 [Compound 176]
B: CC(C)N(C)S(=O)(=O)c1cc(C(N)=O)c(NC(=O)c2cc[nH]n2)s1 [Compound 210]
Exercise: Of A and B , which shows the smaller EC50 value? State your choice using its label.
Key: B
(B: 73.5 nM, A: 1460 nM)

P: NC(=O)c1cc(S(=O)(=O)N2CCCCC2)sc1NC(=O)Cc1ccc(F)cc1 [Compound 32]
Q: CCc1cc(C(=O)Nc2sc(S(=O)(=O)N3CCC(F)(F)CC3)cc2C(N)=O)n[nH]1 [Compound 141]
Exercise: Which item exceeds the other in EC50, P or Q ? State your choice using its label.
Key: P
(P: 1500 nM, Q: 29.7 nM)

I: NC(=O)c1cc(S(=O)(=O)N2CCCCC2)sc1NC(=O)c1cccc(-n2cccn2)c1 [Compound 53]
II: NC(=O)c1cc(S(=O)(=O)N2CCOCC2)sc1NC(=O)c1ccccc1F [Compound 46]
III: NC(=O)c1cc(S(=O)(=O)N2CCCCC2)sc1NC(=O)c1cc2ccccc2s1 [Compound 10]
Exercise: Exam item: list the entries in increasing order of EC50. List the labels, following the order given in the request.
Key: II, III, I

I: CN(C)C1CN(S(=O)(=O)c2cc(C(N)=O)c(NC(=O)c3ccccc3F)s2)C1 [Compound 187]
II: Cc1c(S(=O)(=O)c2ccccc2)sc(NC(=O)c2ccccc2C(F)(F)F)c1C(N)=O [Compound 104]
III: CN(C(c1ccccc1)C(F)(F)F)S(=O)(=O)c1cc(C(N)=O)c(NC(=O)c2cc[nH]n2)s1 (stereo not shown) [Compound 195]
IV: NC(=O)c1cc(S(=O)(=O)N2CC(F)C2)sc1NC(=O)c1ccccc1F [Compound 177]
Exercise: Exam item: list the entries in increasing order of EC50. List the labels, following the order given in the request.
Key: IV, III, II, I

Every entry's value here was drawn from patent US9382254B2.
